A collection of variants and their measured self-cleavage
B1: CPEB3 Ribozyme (parent)
chain: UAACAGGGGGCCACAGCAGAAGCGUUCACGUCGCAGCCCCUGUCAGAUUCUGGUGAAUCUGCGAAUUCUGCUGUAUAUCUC

- Variants of: B1
- method.description: self-cleavage, relative activity (ratio to wild type); higher = more cleavage; in vitro, sequencing
Reply with the value as a number alone.

| sequence.content | number |
| --- | --- |
| UAACAGGGGGCCACAGCAGAAGUGUUCACGUCGCAGCCCCUGUCAGAUGCUGGUGAAUCUGCGAAUUCUGCUGUAUAUCUC | 0.41 |
| UAACAGGGGGCCACAGCAGAAGCGUUCACGUCGCAGCCCCUGUCGGAUUCUUGUGAAUCUGCGAAUUCUGCUGUAUAUCUC | 0.94 |
| UAACAGGGGGCCAUAGCAGAAGCGUUCACGUCGCAGCCCCUGUCAGAUUCUGGUGAAUCUGCGAAUUCUGCCGUAUAUCUC | 1.21 |
| UAACAGGGGGCCACAGCAGAAGCGUUCACGUCGCAGCACCUCUCAGAUUCUGGUGAAUCUGCGAAUUCUGCUGUAUAUCUC | 0.28 |
| UAACAGGGGGCCACAGCAGAAGCGUUCACGUCGCAGCCCCUGUCAGAUUCUGGUAAAUCUGCGAAUUCUGCUGUGUAUCUC | 0.4 |
| UAACAGGGGGCCACAGCAGAAGCGUUCACGUCGCAGCCCUUGUCAGAUUCUGGGGAAUCUGCGAAUUCUGCUGUAUAUCUC | 0.6 |

Request: // lookup self-cleavage for UAACAGGGGGCCACAGCAGAAGCGUUCACGUCGCAGCCCCUGUCACAUUCUGGUGAAUCUGCGAAUUCUGCAGUAUAUCUC
Response: 0.25

Request: // lookup self-cleavage for CAACAGGGGGCCACAGCAGAAGCGUUCACGUCGCAGCCCCUGUCAGAUUCUGGUGAAUCUGCGAAUUCAGCUGUAUAUCUC
Response: 0.44

Request: // lookup self-cleavage for UAACAGGGGGCCACAGCAGAAGCGUUCCCGUCGCAGCCCCUGUCAGAUUCUGGUGAAUCUGCGAAUUCUGCUGUAAAUCUC
Response: 0.61

Request: // lookup self-cleavage for UAACAGGGGGCCACAGCAGAAGCGUUCACGUCGCAGCCCCUGCCAGAUUCUGGUGAAUCUGCGGAUUCUGCUGUAUAUCUC
Response: 0.51

Request: // lookup self-cleavage for UAACAGGGGGCCACAACAGAGGCGUUCACGUCGCAGCCCCUGUCAGAUUCUGGUGAAUCUGCGAAUUCUGCUGUAUAUCUC
Response: 0.16

Reference source: the RNAGym collection of RNA variant scans (doi:10.1093/nar/gkz1192)
